# credit: BindingDB's records for doi:10.1021/jm000455z

method_notes: Agonistic activity towards beta-3 adrenoceptor. Mean concentration required to produce 50% relaxation of detrusor before the addition in the ferret detrusor
Can you tell me pEC50 for the items I'm about to list?
pEC50 (log units): -log10 of the concentration in mol/L.

# input // lookup pEC50 for C[C@H](NCCc1ccc(NCC(=O)O)c(Cl)c1)[C@H](O)c1ccc(O)cc1
# output 9.03

# input What value of pEC50 has been recorded for this entry: C[C@H](NCCc1ccc(NCC(=O)O)c(I)c1)[C@H](O)c1ccc(O)cc1
# output 6.09

# input For the compound C[C@H](NCCc1ccc(NCC(=O)O)cc1)[C@H](O)c1ccc(O)cc1 , what pEC50 is on record?
# output 7.62
